Format: in vivo, human
Settings: human, plasma, po, 60 mg, Tmax, single oral 60 mg, normal renal function; median (minimum–maximum)
reported_property: Tmax (h)
Report the figure in h without appending any unit label.

Answer with reported Tmax of C[C@@H]1CCC[C@H](n2cnc(-c3cc(Cl)ccc3-n3cc(Cl)nn3)cc2=O)c2cc(ccn2)-c2c(cnn2C(F)F)NC1=O [milvexian, Milvexian]
4.5

* * *

Experiment: Milvexian plasma protein binding by LC-MS/MS
Type: in vitro ADME, human
Conditions: human, plasma, %fu (fraction of unbound drug), moderate renal impairment; adjusted geometric mean (%CV)
reported_property: fraction unbound
Reply with just the number.

Answer with reported fraction unbound of C[C@@H]1CCC[C@H](n2cnc(-c3cc(Cl)ccc3-n3cc(Cl)nn3)cc2=O)c2cc(ccn2)-c2c(cnn2C(F)F)NC1=O
0.0881

Data credit: paper PMC9553801
